Data provenance is paper PMC6384730.

Recorded viability at 24 h, 3.91 µg/mL values for a group of compounds are listed next.
assay: MTT cell viability (cytotoxicity) assay on L929 cells; assay type: cell-based, mouse; details: mouse, L929 mouse fibroblast cells, 3.91 µg/mL, 24 h, % of untreated cells
Give the number; % is assumed, so skip it.

- Cc1nc[nH]c1C(=O)NNC(=S)Nc1cccc(F)c1: 104
- Cc1nc[nH]c1C(=O)NNC(=S)Nc1cccc([N+](=O)[O-])c1: 95.4
- Cc1nc[nH]c1C(=O)NNC(=S)Nc1ccccc1[N+](=O)[O-]: 103
- Cc1nc[nH]c1C(=O)NNC(=S)Nc1ccc([N+](=O)[O-])cc1: 98.5
- Cc1nc[nH]c1C(=O)NNC(=S)Nc1cc(F)ccc1F: 105
- COc1ccccc1NC(=S)NNC(=O)c1[nH]cnc1C: 95.8
- Cc1cccc(NC(=S)NNC(=O)c2[nH]cnc2C)c1: 94.1
- Cc1ccc(NC(=S)NNC(=O)c2[nH]cnc2C)cc1Cl: 101

Recorded result, Cc1ccccc1NC(=S)NNC(=O)c1[nH]cnc1C , viability at 24 h, 3.91 µg/mL: 103

Recorded result, CC(=O)c1cccc(NC(=S)NNC(=O)c2[nH]cnc2C)c1 , viability at 24 h, 3.91 µg/mL: 106

Recorded result, Cc1nc[nH]c1C(=O)NNC(=S)Nc1cccc(Cl)c1 , viability at 24 h, 3.91 µg/mL: 95.7

Recorded result, COc1cccc(NC(=S)NNC(=O)c2[nH]cnc2C)c1 , viability at 24 h, 3.91 µg/mL: 92.8

Recorded result, CCN(CC)c1ccc(NC(=S)NNC(=O)c2[nH]cnc2C)cc1 , viability at 24 h, 3.91 µg/mL: 102

Recorded result, Cc1ccc(NC(=S)NNC(=O)c2[nH]cnc2C)cc1 , viability at 24 h, 3.91 µg/mL: 99.1

Recorded result, Cc1nc[nH]c1C(=O)NNC(=S)Nc1c(C(C)C)cccc1C(C)C , viability at 24 h, 3.91 µg/mL: 116

Recorded result, COc1ccc(NC(=S)NNC(=O)c2[nH]cnc2C)cc1OC , viability at 24 h, 3.91 µg/mL: 107

Recorded result, Cc1nc[nH]c1C(=O)NNC(=S)NCc1ccccc1 , viability at 24 h, 3.91 µg/mL: 101

Recorded result, CCOc1ccc(NC(=S)NNC(=O)c2[nH]cnc2C)cc1 , viability at 24 h, 3.91 µg/mL: 115

Recorded result, Cc1nc[nH]c1C(=O)NNC(=S)Nc1ccc(N(C)C)cc1 , viability at 24 h, 3.91 µg/mL: 93.1

Recorded result, COc1ccc(NC(=S)NNC(=O)c2nc[nH]c2C)cc1 , viability at 24 h, 3.91 µg/mL: 95.1

----------
assay: MTT cell viability (cytotoxicity) assay on L929 cells; format: cell-based, mouse; conditions: mouse, L929 mouse fibroblast cells, 31.25 µg/mL, 24 h, % of untreated cells
Label Met when viability at 24 h, 31.25 µg/mL < 90%; otherwise Not met.

• Cc1nc[nH]c1C(=O)NNC(=S)Nc1ccc([N+](=O)[O-])cc1 [Compound 4] = Not met
• COc1ccc(NC(=S)NNC(=O)c2[nH]cnc2C)cc1OC [Compound 13] = Not met
• Cc1ccc(NC(=S)NNC(=O)c2[nH]cnc2C)cc1 [Compound 18] = Met
• CCN(CC)c1ccc(NC(=S)NNC(=O)c2[nH]cnc2C)cc1 [Compound 20] = Met
• Cc1nc[nH]c1C(=O)NNC(=S)Nc1c(C(C)C)cccc1C(C)C [Compound 22] = Met

--- query ---
Q: Please indicate whether the reported viability at 24 h, 31.25 µg/mL of Cc1ccc(NC(=S)NNC(=O)c2[nH]cnc2C)cc1Cl [Compound 14] is strictly below 90%.
Ans: Met
